B1: C2orf65 (parent)
chain: QLDWDELETNQQHFHALCHSLLVS

# Variants of: B1
# assay_text: protein stability index of a GFP-peptide fusion (GPS, HEK-293T) (PSI 1-6); higher = more stable;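 also: lentivirally expressed fusions sorted by FACS into six bins by GFP to DsRed ratio, PSI derived from sequencing read proportions per bin multiplied by bin number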
# condition_context: c terminus: a fixed tail appended
readout_type: protein stability index
Please reply with the number alone, leaving off any unit.

Prompt line: Param item = H15N ; retrieve measured protein stability index.
Response line: 2.26

Prompt line: Repeat for the following variant: N10I
Response line: 2.19

Prompt line: W4K , same question.
Response line: 2.85

Prompt line: What about this variant? H19A
Response line: 1.88

Prompt line: Now give it for A16N too.
Response line: 1.95

Prompt line: Then this variant: C18E
Response line: 3.64

Prompt line: Would you mind doing Q1V as well?
Response line: 2.5

Prompt line: Now consider H15D and answer again.
Response line: 2.64

Prompt line: Follow-up item: C18S
Response line: 2.88

Prompt line: Then what about the variant D3Y ?
Response line: 1.47

Prompt line: Now this one: H13K
Response line: 2.02

Prompt line: Then this variant: W4D
Response line: 3.18

Prompt line: Same question for L17S please.
Response line: 2.58

Prompt line: Another: N10G
Response line: 2.82

Prompt line: And E8S ?
Response line: 1.67

Prompt line: Next variant up: W4T
Response line: 3.14

Prompt line: // query: S20N
Response line: 2.61

Prompt line: Cool, now L17R
Response line: 2.68

Prompt line: Follow-up item: C18M
Response line: 2.11

Prompt line: E8L , same question.
Response line: 2.31

Prompt line: Then this variant: C18G
Response line: 2.2

Prompt line: Moving on to L17P
Response line: 3.92
